Recorded measurements of Threshold of tumor cell numbers for HPV-16 detection, one per entry
Tested on: HPV-16
Assay: qPCR sensitivity against HPV-HNSCC tumor samples diluted among 10 ng normal human DNA
Details: Sample # 15
Reply with the number and its unit after it.

Example entries and their recorded answers appear below.
Molecule: HR E5L2-4: primer/probe set for junction between E5 and L2, SEQ ID NO: 55-57 (same as SEQ ID NO: 4-6) (nucleic acid, chemistry not given here) DNA 1: GCAAAACGCACAAAACGTGC DNA 2: GACATGTACCTGCCTGTTTGC DNA 3: CGGCTACCCAACTTTATAAAACA
Result: 30.0 tumor cells
--
Molecule: E7: previously designed (historical) HPV-16 E7 primers and Taqman probe, SEQ ID NO: 10-12; part of CLIA test (nucleic acid, Taqman probe, labels not given here, part of CLIA test) DNA 1: CCGGACAGAGCCCATTACAA DNA 2: CGAATGTCTACGTGTGTGCTTTG DNA 3: CGCACAACCGAAGCGTAGAGTCACACT
Result: 6.0 tumor cells

Requested field: Threshold of tumor cell numbers for HPV-16 detection. Item: E6: previously designed (historical) HPV-16 E6 primers and Taqman probe, SEQ ID NO: 7-9, positive control (nucleic acid, Taqman probe, labels not given here) DNA 1: TCAGGACCCACAGGAGCG DNA 2: CCTCACGTCGCAGTAACTGTTG DNA 3: CCCAGAAAGTTACCACAGTTATGCACAGAGCT
6.0 tumor cells

Requested field: Threshold of tumor cell numbers for HPV-16 detection. Item: BR E6-1: HPV-16 E6 region (172-373 bp) primer/probe set, SEQ ID NO: 58-60 (nucleic acid, chemistry not given here) DNA 1: CAGTTACTGCGACGTGAGGT DNA 2: ACAGCATATGGATTCCCATCTC DNA 3: ACTTTGCTTTTCGGGATTTATGCATAGTA
30.0 tumor cells

Requested field: Threshold of tumor cell numbers for HPV-16 detection. Item: BR E1-6: HPV-16 E1 region primer/probe set, SEQ ID NO: 43-45 (nucleic acid, chemistry not given here) DNA 1: ATGCACAATTGGCAGACACTAA DNA 2: AATCCTTTACAATTTTTGCCTGTGA DNA 3: AGTAATGCAAGTGCCTTTCTAAAAAGTA
6.0 tumor cells

Where these numbers come from: patent US20200399712A1
